# Tested on: Vero cells
# Assay text: Cytotoxicity assay on Vero cells (microscopic morphology)
# Type: cell-based
# Set-up: key: -: Safe concentration; + 1, +2, + 3, +4: about 25, 50, 75, 100% of cell sheet was affected respectively; + 1, +2, + 3, +4: about 25, 50, 75, 100% of cell sheet was affected respectively; + 1, +2, + 3, +4: about 25, 50, 75, 100% of cell sheet was affected respectively; + 1, +2, + 3, +4: about 25, 50, 75, 100% of cell sheet was affected respectively; M: masked (color of compounds made cells unseen)
# Condition info: 80 µg/100µl, 24 h, morphological changes
# Experimental: Compounds: 10 mg were dissolved in 1 mL (10% DMSO and 90% deionized water), sterilized by 1% antibiotic–antimycotic mixture and stored in −20. Cells: Vero cell line was used. […] Cytotoxic effect of compounds was measured by inoculation different doses of compounds on tested cells then examining them microscopically after 24 h to determine any morphological changes that appeared on cells as a result of being subjected to the compounds[46]. […] Any morphological changes were monitored under a microscope.
Readout name: Cytotoxicity on Vero cells (cell sheet affected)

Consider the reported Cytotoxicity on Vero cells (cell sheet affected) for these compounds:
Compound	Measured value
CCOC(=O)c1sc(N/N=C2/C(=Cc3cc(OC)ccc3OC)/C(=N/Nc3nc(C)c(C(=O)OCC)s3)c3ccccc32)nc1C [11b]	M
COc1ccc(OC)c(C=C2/C(=N/Nc3nc(C)c(C(C)=O)s3)c3ccccc3/C2=N\Nc2nc(C)c(C(C)=O)s2)c1 [11a]	M
COc1ccc(OC)c(C=C2/C(=N/Nc3nc(C)c(/N=N/c4ccccc4)s3)c3ccccc3/C2=N\Nc2nc(C)c(/N=N/c3ccccc3)s2)c1 [7a]	M
COc1ccc(OC)c(C=C2C(=O)c3ccccc3C2=O)c1 [compound 1]	-
COc1ccc(OC)c(C=C2/C(=N/Nc3nc(C)c(/N=N/c4ccc([N+](=O)[O-])cc4)s3)c3ccccc3/C2=N\Nc2nc(C)c(/N=N/c3ccc([N+](=O)[O-])cc3)s2)c1 [7d]	-

Ask: Suppose we examine the compound COc1ccc(OC)c(C=C2C(=NNC(N)=S)c3ccccc3C2=NNC(N)=S)c1 [compound 3] ; what Cytotoxicity on Vero cells (cell sheet affected) value has been reported?
Reply: -

Ask: Suppose we examine the compound COc1ccc(OC)c(C=C2/C(=N/Nc3nc(-c4ccccc4)cs3)c3ccccc3/C2=N\Nc2nc(-c3ccccc3)cs2)c1 [compound 13] ; what Cytotoxicity on Vero cells (cell sheet affected) value has been reported?
Reply: -

Ask: Suppose we examine the compound COc1ccc(OC)c(C=C2/C(=N/Nc3nc(C)c(/N=N/c4ccc(C)cc4)s3)c3ccccc3/C2=N\Nc2nc(C)c(/N=N/c3ccc(C)cc3)s2)c1 [7b] ; what Cytotoxicity on Vero cells (cell sheet affected) value has been reported?
Reply: M

Ask: Suppose we examine the compound COc1ccc(OC)c(C=C2/C(=N/Nc3nc(C)cs3)c3ccccc3/C2=N\Nc2nc(C)cs2)c1 [11c] ; what Cytotoxicity on Vero cells (cell sheet affected) value has been reported?
Reply: -

Ask: Suppose we examine the compound COc1ccc(OC)c(C=C2/C(=N/Nc3nc(C)c(/N=N/c4ccc(Cl)cc4)s3)c3ccccc3/C2=N\Nc2nc(C)c(/N=N/c3ccc(Cl)cc3)s2)c1 [7c] ; what Cytotoxicity on Vero cells (cell sheet affected) value has been reported?
Reply: -

Reference source for all entries: paper PMC11599599
